B1: SAM and SH3 domain-containing protein 1, residues 630 to 700; numbered along this chain, O94885 (parent)
chain: GRPPQPKSVEDLLDRINLKEHMPTFLFNGYEDLDTFKLLEEEDLDELNIRDPEHRAVLLTAVELLQEYDSN

Variants of: B1
Test: abundance fitness (aPCA) (normalised: wild type 0, dead -1); higher = more abundant; growth selection in yeast, the domain comes from the species named
Settings: Homo sapiens
Below, each entry is listed alongside its reported abundance fitness.
measured-quantity: abundance fitness

* GHPPQPKSVEDLLDRINLKEHMPTFLFNGYEDLDTFKLLEEEDLDELNIRDPEHRAVLLTAVELLQEYDSN [R2H] | -0.301
* GRPPQPKSVEDLLDRINLKEHMPTFLFNGYEDLDTFKLLEEHDLDELNIRDPEHRAVLLTAVELLQEYDSN [E42H] | 0.055
* GRPPQPKSVEDLLDRINLKEHMPTFLFNGYEDLDTFKLLEEEDLDELNIRDPEHRKVLLTAVELLQEYDSN [A56K] | 0.265
* GRPPQPKSVEDLLDRINLKEHMPKFLFNGYEDLDTFKLLEEEDLDELNIRDPEHRAVLLTAVELLQEYDSN [T24K] | -0.079
* GRPPQPKSVEDLLDRINLKEHMPTFLFNGYEDLDTFKLLEEEDLDELNIRDPEHRVVLLTAVELLQEYDSN [A56V] | -0.493
* GRPPQPKQVEDLLDRINLKEHMPTFLFNGYEDLDTFKLLEEEDLDELNIRDPEHRAVLLTAVELLQEYDSN [S8Q] | -0.55
* GRPPQPKSVEDLLDRINLKEHMPTNLFNGYEDLDTFKLLEEEDLDELNIRDPEHRAVLLTAVELLQEYDSN [F25N] | -0.612
* GRPPQPKSVEDLLDRINLKEHMPTFLFNGYEDLDTFKLLEEEDLDELNIRDPEHRAVLLTALELLQEYDSN [V62L] | -0.647
* GRPPQPKSVEDLLDRINLKEHMPTFLFNGYEDLDTFKLLEEEDLDELNIRDPEHRAVLLTAVERLQEYDSN [L64R] | 0.199
* GRPPQPKSKEDLLDRINLKEHMPTFLFNGYEDLDTFKLLEEEDLDELNIRDPEHRAVLLTAVELLQEYDSN [V9K] | -0.701
* GRPPQPKSAEDLLDRINLKEHMPTFLFNGYEDLDTFKLLEEEDLDELNIRDPEHRAVLLTAVELLQEYDSN [V9A] | -0.844
* GRPPQPKSVEDLLDRINLKEHMPTFLFNGYEDLDTFKLLEIEDLDELNIRDPEHRAVLLTAVELLQEYDSN [E41I] | -0.588
* GRPPQPKSVEDLEDRINLKEHMPTFLFNGYEDLDTFKLLEEEDLDELNIRDPEHRAVLLTAVELLQEYDSN [L13E] | -0.572
* GRPPQPKSVEDLLDRINLKEHMPTFLFNGYEDLDTFKLLELEDLDELNIRDPEHRAVLLTAVELLQEYDSN [E41L] | -0.635
* GRPPQQKSVEDLLDRINLKEHMPTFLFNGYEDLDTFKLLEEEDLDELNIRDPEHRAVLLTAVELLQEYDSN [P6Q] | -0.726
* GRPPQPKSEEDLLDRINLKEHMPTFLFNGYEDLDTFKLLEEEDLDELNIRDPEHRAVLLTAVELLQEYDSN [V9E] | -0.876
* GRPPQPKSVEDLLDRINLKEHMPTFMFNGYEDLDTFKLLEEEDLDELNIRDPEHRAVLLTAVELLQEYDSN [L26M] | -0.043
* GRPPQPKSVEDLLDRINLKEHMPTFLFEGYEDLDTFKLLEEEDLDELNIRDPEHRAVLLTAVELLQEYDSN [N28E] | -0.647
* GRPPQFKSVEDLLDRINLKEHMPTFLFNGYEDLDTFKLLEEEDLDELNIRDPEHRAVLLTAVELLQEYDSN [P6F] | 0.085
* GRPPQPKSVEDLLDRINLKEHMPTFLFNGYEDLDFFKLLEEEDLDELNIRDPEHRAVLLTAVELLQEYDSN [T35F] | -0.911
* GRPPQPKSVEDLLDRINLKEHMPTFLFNGYEDLDTFKLLEEEDLNELNIRDPEHRAVLLTAVELLQEYDSN [D45N] | -0.272
* GRPPQPKSVEDLLDRINLKEVMPTFLFNGYEDLDTFKLLEEEDLDELNIRDPEHRAVLLTAVELLQEYDSN [H21V] | -0.607
